test: HCT116 colon cancer cell growth inhibition, primary screen, CellTiter-Glo luminescence, NPC library (AID 1117342); details: at 20 µM (top of the series)
Recorded metric: inhibition of viability (%)

Compound | Value units | Quantitative result
CCN(CC)CC(=O)Nc1c(C)cccc1C | % | -5.2
c1ccc2[nH]ccc2c1 | % | -34.9
CN=C(N)NC(=O)Nc1c(C)cccc1C | % | 11.3
CO[C@@]1(NC(=O)Cc2cccs2)C(=O)N2C(C(=O)O)=C(COC(N)=O)CS[C@@H]21 | % | 14.8
COC(=O)Nc1nc2ccc(C(=O)C3CC3)cc2[nH]1 | % | 87.9
CSc1ccc2c(c1)N(CCC1CCCCN1C)c1ccccc1S2 (stereo unspecified) | % | 112

---

assay: HCT116 colon cancer cell growth inhibition, primary screen, CellTiter-Glo luminescence, NPC library (AID 1117342); conditions: at 20 µM (top of the series)

Compound | inhibition of viability, %
c1ccc2c(CC3=NCCN3)cccc2c1 | -0.7
CC1Cc2ccccc2N1NC(=O)c1ccc(Cl)c(S(N)(=O)=O)c1 (stereo unspecified) | -2.13
N#C[C@H]1C[C@H]2C[C@@H]2N1C(=O)[C@@H](N)C12CC3CC(CC(O)(C3)C1)C2 | -5.3
Oc1cccc(-c2c3nc(c(-c4cccc(O)c4)c4ccc([nH]4)c(-c4cccc(O)c4)c4nc(c(-c5cccc(O)c5)c5ccc2[nH]5)CC4)C=C3)c1 | 109
Cc1coc2ccccc2c1=O | -12.2
CCOC(=O)C(=O)CCCCCCl | 12.6
CCCCCCCCCCCCOCCOCCOCCOCCOCCOCCOCCOCCOCCO | 96.8
OCCN1CCN(CCCN2c3ccccc3Sc3ccc(C(F)(F)F)cc32)CC1 | 124
CC(C)(Cc1c[nH]c2ccccc12)NCC(O)COc1ccccc1C#N (stereo unspecified) | 87
COc1ccccc1OCCNCC(O)COc1cccc2[nH]c3ccccc3c12 (stereo unspecified) | 83.7
Cc1nc2ccccn2c(=O)c1CCN1CCC(C(=O)c2ccc(F)cc2)CC1 | 67.9

---

assay: activators of macrophage pro-inflammatory response, cell-based, murine, luminescence (AID 652131); conditions: murine macrophage pro-inflammatory reporter, active compounds read high
Each entry gets criterion not met if its z-score stays under 0.3, and criterion met if its z-score is 0.3 or above.

Chemical smiles | Label value
COc1ccccc1Oc1nccc(-c2c(-c3ccc(F)cc3)ncn2C2CCNCC2)n1 | criterion met
Fc1ccc(-c2nc3n(c2-c2ccncc2)CCS3)cc1 | criterion met
Fc1ccc(-c2ncn(C3CCNCC3)c2-c2ccnc(Oc3cccc(C(F)(F)F)c3)n2)cc1 | criterion not met
CN(C)C(=O)O[C@@H]1CN[C@@H](C#Cc2cc3ncnc(Nc4ccc(OCc5cccc(F)c5)c(Cl)c4)c3s2)C1 | criterion not met
Cc1ccc(C(=O)NC2CCC2)cc1-c1ccc(C(=O)NCC2CC2)cc1 | criterion not met
NS(=O)(=O)c1ccc(N=Nc2c(O)[nH]c3ccc(-c4cnco4)cc23)cc1 | criterion met
Cc1ccc(O)cc1Nc1ccnc2ccc(S(C)(=O)=O)cc12 | criterion met
COc1ccccc1Nc1ncc(-c2ccccc2)o1 | criterion met
CCS(=O)(=O)c1ccc(OC)c(Nc2ncc(-c3cccc(F)c3)o2)c1 | criterion not met
COC(=O)c1ccc2c(c1)/C(=C\c1cc(Br)c(O)c(Br)c1)C(=O)N2 | criterion not met
COc1ccc(-c2ccc3c(NC(=O)C4CC4)n[nH]c3n2)cc1 | criterion met
CCn1c(-c2nonc2N)nc2c(C#CCN)ncc(OCCCN)c21 | criterion met
N#Cc1c(NC(=O)c2ccccc2F)sc2c1CCCC2 | criterion met
NC(=O)c1sc(-n2cnc3ccc(C(F)(F)F)cc32)cc1OCc1ccccc1Br | criterion not met
c1ccc(Oc2ccc(Nc3ncc(-c4ccccc4)o3)cc2)cc1 | criterion met
NS(=O)(=O)c1ccc(-c2cc3ccncc3cc2OCc2ccccc2)cc1 | criterion met
Cc1ccc(NC(=O)c2ccnc(N3CCOCC3)c2)cc1-c1ccc(C(=O)NCC2CC2)cc1 | criterion not met
Fc1ccc(Nc2nccc(-c3c(-c4ccc(C(F)(F)F)cc4)nn4ncccc34)n2)cc1F | criterion not met
CCn1c(-c2nonc2N)nc2cncc(C(=O)NCCNC)c21 | criterion not met
c1cnn2ncc(-c3ccnc(NCCCN4CCOCC4)n3)c2c1 | criterion not met
